Molecular target: NMDA-GluN2B receptors, dog frontal cortex homogenate (Canis lupus familiaris, UniProt Q5R1P0+Q5R1P3)
Construct: frontal cortex homogenate (dog and rhesus monkey); from tissue; host or cells: dog frontal cortex homogenate
Sequence (Q5R1P3 27-1485, other chains not shown): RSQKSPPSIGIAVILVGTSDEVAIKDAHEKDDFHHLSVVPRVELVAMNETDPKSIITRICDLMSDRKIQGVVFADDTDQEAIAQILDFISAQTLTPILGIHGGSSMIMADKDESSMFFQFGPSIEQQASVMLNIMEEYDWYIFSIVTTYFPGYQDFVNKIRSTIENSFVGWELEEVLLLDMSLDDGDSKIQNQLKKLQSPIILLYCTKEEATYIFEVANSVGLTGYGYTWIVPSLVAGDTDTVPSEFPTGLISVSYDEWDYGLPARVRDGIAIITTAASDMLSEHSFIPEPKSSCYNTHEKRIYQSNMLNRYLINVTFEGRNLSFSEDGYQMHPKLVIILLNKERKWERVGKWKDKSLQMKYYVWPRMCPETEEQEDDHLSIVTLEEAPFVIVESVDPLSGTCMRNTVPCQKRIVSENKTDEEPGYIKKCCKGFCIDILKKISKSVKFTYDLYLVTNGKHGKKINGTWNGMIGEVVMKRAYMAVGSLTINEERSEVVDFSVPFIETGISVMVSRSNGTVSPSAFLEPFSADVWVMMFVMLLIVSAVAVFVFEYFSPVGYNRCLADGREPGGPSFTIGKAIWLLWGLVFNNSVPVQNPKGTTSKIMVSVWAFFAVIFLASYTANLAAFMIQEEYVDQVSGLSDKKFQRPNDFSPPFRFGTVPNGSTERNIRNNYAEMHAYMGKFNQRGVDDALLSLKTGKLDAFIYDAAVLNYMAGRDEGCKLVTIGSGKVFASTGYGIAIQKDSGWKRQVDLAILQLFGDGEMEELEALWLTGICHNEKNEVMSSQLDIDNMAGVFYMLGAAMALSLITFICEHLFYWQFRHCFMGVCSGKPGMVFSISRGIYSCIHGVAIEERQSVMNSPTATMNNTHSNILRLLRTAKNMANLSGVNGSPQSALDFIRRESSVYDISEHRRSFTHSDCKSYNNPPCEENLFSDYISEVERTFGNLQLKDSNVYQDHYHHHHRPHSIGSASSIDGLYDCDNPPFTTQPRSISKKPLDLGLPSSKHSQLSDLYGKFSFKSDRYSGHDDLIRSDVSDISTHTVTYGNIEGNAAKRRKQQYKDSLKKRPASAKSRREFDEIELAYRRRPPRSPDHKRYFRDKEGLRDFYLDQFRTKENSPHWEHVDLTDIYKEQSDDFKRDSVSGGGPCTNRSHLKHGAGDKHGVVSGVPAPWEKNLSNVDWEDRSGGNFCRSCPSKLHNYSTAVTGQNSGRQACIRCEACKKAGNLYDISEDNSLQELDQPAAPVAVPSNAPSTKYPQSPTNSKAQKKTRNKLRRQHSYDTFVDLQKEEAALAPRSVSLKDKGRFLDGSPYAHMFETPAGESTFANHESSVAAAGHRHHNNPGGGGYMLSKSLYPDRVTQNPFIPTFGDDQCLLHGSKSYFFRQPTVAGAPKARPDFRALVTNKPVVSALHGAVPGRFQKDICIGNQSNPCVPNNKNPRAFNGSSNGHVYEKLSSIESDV
Test: Radioligand binding, dog frontal cortex homogenate
Details: 37° C., geometric mean
Protocol: Radioligand binding assays were performed at room temperature (or 37° C.) in 96-well microtiter plates with a final assay volume of […] in 20 mM HEPES buffer (pH 7.4) containing 150 mM NaCl. […] Nonspecific binding was assessed using N-(3-chlorobenzyl)-4-iodobenzimidamide (final concentration, 10 μM), and total binding was measured by addition of DMSO (final concentration, 2%). […]
metric: pKi
// pKi: -log10(molar conc.)

Query: For the molecule Cc1ccc(COC(=O)N2CC[C@H](CNc3ncccn3)[C@H](F)C2)cc1 [Form II] , what pKi is on record?
Reply: 7.89
